Lab note: IC50 readings collected with Wee1-like protein kinase (Homo sapiens, UniProt P30291) for the following compounds.
Sequence (P30291 whole entry): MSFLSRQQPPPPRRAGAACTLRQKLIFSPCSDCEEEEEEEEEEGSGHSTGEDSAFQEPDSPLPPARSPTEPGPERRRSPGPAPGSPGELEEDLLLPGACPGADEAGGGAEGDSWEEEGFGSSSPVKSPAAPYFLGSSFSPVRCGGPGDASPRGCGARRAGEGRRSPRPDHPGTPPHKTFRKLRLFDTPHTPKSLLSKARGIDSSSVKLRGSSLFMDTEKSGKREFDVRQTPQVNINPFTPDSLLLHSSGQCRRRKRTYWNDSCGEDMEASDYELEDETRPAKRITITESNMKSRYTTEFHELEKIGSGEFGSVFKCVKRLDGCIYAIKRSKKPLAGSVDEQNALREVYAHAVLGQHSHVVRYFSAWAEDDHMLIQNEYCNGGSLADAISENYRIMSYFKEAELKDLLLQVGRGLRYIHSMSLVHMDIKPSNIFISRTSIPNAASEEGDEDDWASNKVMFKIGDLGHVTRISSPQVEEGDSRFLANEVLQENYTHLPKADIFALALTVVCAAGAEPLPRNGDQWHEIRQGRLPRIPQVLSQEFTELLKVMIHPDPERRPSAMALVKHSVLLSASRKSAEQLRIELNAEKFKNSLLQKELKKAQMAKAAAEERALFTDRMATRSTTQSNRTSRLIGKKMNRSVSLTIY
Use nM as the unit, but write only the number.

Ask: Write down IC50 measured for item C=CCn1c(=O)c2cnc(Nc3ccc(N4CCN(C)CC4)cc3)nc2n1-c1ccc2c(n1)C(O)(C(F)(F)F)CC2 (single isomer, unassigned)
Result: 3.6

Ask: Supply measured IC50 of C=CCn1c(=O)c2cnc(Nc3ccc4c(c3)CNCC43CC3)nc2n1-c1ccc2c(n1)[C@@](O)(C(F)(F)F)CC2 in your reply.
Result: 2.5

Ask: Identify the reported IC50 for the following entry. C=CCn1c(=O)c2cnc(Nc3ccc(N4CCN(C)CC4)cc3)nc2n1-c1ccc2c(n1)[C@@](N)(CC)CC2
Result: 3.2

Ask: Consider the compound CC[C@@]1(O)CCc2ccc(-n3c4nc(Nc5ccc(N6CCN(C)CC6)cc5)ncc4c(=O)n3CC3CC3)nc21 . State its measured IC50.
Result: 64

====

Recorded logD values for a group of molecules are listed next.
measurement description: Octanol/buffer distribution coefficient, logD of the compound at pH 7.4
Format: physicochemical
Lab note: jot the number down without any unit.

Examples with their reported logD follow.
molecule | logD
C=CCn1c(=O)c2cnc(Nc3ccc4c(ccn4C4CCN(C)CC4)c3)nc2n1-c1ccc2c(n1)[C@@](O)(CC)CC2 | 2.7
C=CCn1c(=O)c2cnc(Nc3ccc(N4CCN(C)CC4)cc3)nc2n1-c1ccc2c(c1)C(C)(O)CC2 (single isomer, unassigned) | 2.5
C=CCn1c(=O)c2cnc(Nc3ccc4c(c3)CN(C)CC43CC3)nc2n1-c1cccc(C(C)(C)O)n1 | 3.1
C=CCn1c(=O)c2cnc(Nc3ccc(N4CCN(C)CC4)c(C)c3)nc2n1-c1ccc2c(n1)[C@](C)(O)CC2 | 2.6
C=CCn1c(=O)c2cnc(Nc3ccc4c(c3)CCN(C)C4)nc2n1-c1cccc(C(C)(C)O)n1 | 2.5
C=CCn1c(=O)c2cnc(Nc3ccc(N4CCN(C)CC4)cc3)nc2n1-c1ccc2c(n1)[C@@](N)(CC)CC2 | 1.4

Moving on to another molecule below.
Ask: Read off the recorded logD for C=CCn1c(=O)c2cnc(Nc3ccc(N4CCN(C)CC4)cc3)nc2n1-c1ccc2c(n1)C(O)(C1CC1)CC2 (single isomer, unassigned)
Result: 2.4

====

measurement description: AUC(0 to 24 hrs) in mouse at 60 mg/kg, po
Assay type: ADME, organism-based
Set-up: time < 24 hr, route oral, dose 60 mg/kg
reported conditions: in vivo
measure name: AUC(0-t) at 24 h

Recorded results for 6 molecules are shown here.
molecule | experimental result
C=CCn1c(=O)c2cnc(Nc3ccc4c(c3)CN(CCO)CC4)nc2n1-c1cccc(C(C)(C)O)n1 | 1.8 µM·h
C=CCn1c(=O)c2cnc(Nc3ccc(N4CCN(C)CC4)c(C)c3)nc2n1-c1ccc2c(n1)[C@](C)(O)CC2 | 52 µM·h
C=CCn1c(=O)c2cnc(Nc3ccc4c(c3)CNCC4)nc2n1-c1cccc(C(C)(C)O)n1 | 2.9 µM·h
C=CCn1c(=O)c2cnc(Nc3ccc(N4CCN(C)CC4)cc3)nc2n1-c1ccc2c(c1)C(C)(O)CC2 (single isomer, unassigned) | 19 µM·h
C=CCn1c(=O)c2cnc(Nc3ccc4c(c3)CNCC43CC3)nc2n1-c1cccc(C(C)(C)O)n1 | 6.4 µM·h
C=CCn1c(=O)c2cnc(Nc3ccc(N4CCN(C)CC4)cc3)nc2n1-c1cccc(C(C)(C)O)n1 | 22 µM·h

Ask: Tell us which AUC(0-t) at 24 h value is on record for C=CCn1c(=O)c2cnc(Nc3cc(N4CCN(C)CC4)c4ccn(C)c4c3)nc2n1-c1ccc2c(n1)[C@@](O)(CC)CC2
Result: 14 µM·h

Ask: Give me measured AUC(0-t) at 24 h, please, for this molecule: C=CCn1c(=O)c2cnc(Nc3ccc(N4CCN(C)CC4)cc3)nc2n1-c1ccc2c(n1)[C@@](O)(CC)CCC2
Result: 35 µM·h
